# target system: LC3B (human, UniProt Q9GZQ8 1-125)
# method notes: ITC
parameter measured: Kd (nM)
Number in nM, nothing else.

// sample VEEEWVIVSDEEIEEARQKAPLEITEY [AnkB LIR (AnkB WT peptide, human 440 kD AnkB residues 1588-1614)] , its Kd was 4.2

Recorded values, source patent US20210169980A1.
